system: U251 CNS
// classify into True (active), False (inactive)

COc1ccc(C2=C(c3cn(C)c4ccccc34)C(=O)NC2=O)cc1OC False
NC(=NC1CCCCCC1)c1ccc(N2CCN(c3ccc(C(N)=NC4CCCCCC4)cc3)CC2)cc1 False
O=C1C(Cl)=C(N2CCOCC2)C(=O)c2ccccc21 False
Cl.Fc1c[c-]c(-c2ccccn2)c(F)c1.[Pt].c1ccc([PH+](CC[PH+](c2ccccc2)c2ccccc2)c2ccccc2)cc1 True
Nc1ncc(-c2ccc(C(F)(F)F)cc2)c(NC2CCCCCC2)n1 False

# input Please indicate how the test categorized Cc1c(Cl)cccc1NC(=O)c1sc2nc3c(cc2c1N)CCCCCC3 .
# output True

# input Please indicate how the test categorized CCCCC(=O)[O-].N.N.N.N.N.[Co+3].[O-][Cl+3]([O-])([O-])[O-] .
# output False

# input Please indicate how the test categorized O=C(Nc1ccc(Nc2ccncc2)cc1)c1ccc(Nc2ccnc3ccc([N+](=O)[O-])cc23)cc1 .
# output False

# input Please indicate how the test categorized O=[N+]([O-])c1cc(Br)cc2c1[nH]c1ccc(Br)cc12 .
# output False

# input Please indicate how the test categorized O=C(O)c1ccc(NS(=O)(=O)c2cccc3cccnc23)cc1 .
# output False

# input Please indicate how the test categorized O=C(c1cc(-c2cc3c(cc2C(=O)N2Cc4ccccc4C[C@H]2CN2CCOCC2)OCO3)n2c1CCCC2)N(c1ccccc1)c1ccc(O)cc1 .
# output False

# input Please indicate how the test categorized COc1ccc(C(=O)c2cc(OC)c(OC)c(OC)c2)cc1O .
# output True

# input Please indicate how the test categorized Cc1nn2c(/C=C3/C(=O)Nc4ccc(Cl)cc43)c(-c3ccccc3)nc2s1 .
# output False

# input Please indicate how the test categorized COc1ccc(C(=O)/C=C/c2cc(C(=O)c3cc(OC)c(OC)c(OC)c3)ccc2OC)cc1 .
# output False

# input Please indicate how the test categorized c1cncc(CNc2ccccc2-c2nnc(Nc3ccc4c(c3)OCCO4)o2)c1 .
# output True

# input Please indicate how the test categorized CCS(=O)(=O)c1ccc(OC)c(Nc2nccc(N(C)c3ccc4c(C)[nH]nc4c3)n2)c1 .
# output False

# input Please indicate how the test categorized CCOC(=O)[C@@H](C)C[C@H](Cc1ccccc1)NC(=O)c1csc([C@@H](C[C@H](C(C)C)N(C)C(=O)[C@H](CCC(C)C)NC(=O)[C@H]2CCCCN2C)OC(C)=O)n1 .
# output True
